Below, each entry is listed with its recorded protein stability index.
# Tested on: Saccharomyces cerevisiae
# Run Description: protein stability index of tFT-peptide fusion (C-terminal peptide) (PSI (0-1 scale)); higher = more stable (slower turnover);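 note: PSI is a weighted mean of sequencing reads over stability bins, variants kept only with over 10 reads, mCherry proximal and sfGFP distal, peptide attached via GGGS linker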
# Assay Setup: genetic background: wild type; temperature: 30 C

| Sequence | Experimental System | protein stability index |
| --- | --- | --- |
| VSVVLKTQRVVC | Saccharomyces cerevisiae | 0.346 |
| LYLGCVLFVLFR | Saccharomyces cerevisiae | 0.198 |
| VCLLGWGVRLVS | Saccharomyces cerevisiae | 0.371 |
| VAWWVCIRSCCG | Saccharomyces cerevisiae | 0.395 |
| TRHIGQYIHKIT | Saccharomyces cerevisiae | 0.233 |
| RSIAFLLGQFLS | Saccharomyces cerevisiae | 0.395 |
| SIFWWWLVFILG | Saccharomyces cerevisiae | 0.368 |
| FTNLDYTKEKNN | Saccharomyces cerevisiae | 0.146 |
| RDYIAAKLVVCG | Saccharomyces cerevisiae | 0.318 |
| ISLSSLYVVMYV | Saccharomyces cerevisiae | 0.195 |
| KKKNIYKVMKLE | Saccharomyces cerevisiae | 0.19 |
| FPLGMFWVCFFV | Saccharomyces cerevisiae | 0.207 |
| GGGVGVVWVRLG | Saccharomyces cerevisiae | 0.114 |
| FIRLTFLRLSCI | Saccharomyces cerevisiae | 0.199 |
| VRGWLAYLRWII | Saccharomyces cerevisiae | 0.205 |
| RSKLGVLVILWF | Saccharomyces cerevisiae | 0.273 |
| HSRALLPYLSYH | Saccharomyces cerevisiae | 0.388 |
| FFLVLWSSLLSP | Saccharomyces cerevisiae | 0.386 |
| SCCLLICIFFIF | Saccharomyces cerevisiae | 0.231 |
| LLLVPLLAFSAS | Saccharomyces cerevisiae | 0.46 |
| VIQNKKKNKITS | Saccharomyces cerevisiae | 0.168 |
| YFFFPILCFCFF | Saccharomyces cerevisiae | 0.381 |
| SFFVCAGFWVLC | Saccharomyces cerevisiae | 0.289 |
| WFSMSRLWVFYS | Saccharomyces cerevisiae | 0.0847 |
| YPVAWSSAIIIR | Saccharomyces cerevisiae | 0.371 |
| GVQFRRPLIPIY | Saccharomyces cerevisiae | 0.35 |
| LCFRLVSYLCIN | Saccharomyces cerevisiae | 0.221 |
| LNVEEGGGLENV | Saccharomyces cerevisiae | 0.637 |
| AFCGRRGHQFYN | Saccharomyces cerevisiae | 0.164 |
| RFGLPLLVVTWL | Saccharomyces cerevisiae | 0.402 |
| VGVVVVGDVLVW | Saccharomyces cerevisiae | 0.26 |
| CLCVLVSFFFGL | Saccharomyces cerevisiae | 0.323 |
| AGESLRAIAVLY | Saccharomyces cerevisiae | 0.292 |
| CLCFFMSILWWV | Saccharomyces cerevisiae | 0.374 |
| RFVLVFLVSLII | Saccharomyces cerevisiae | 0.397 |
| LWFFVGFAVYGG | Saccharomyces cerevisiae | 0.371 |
| LRFMLLSFLVIL | Saccharomyces cerevisiae | 0.176 |
| LYLCLVSPVVVL | Saccharomyces cerevisiae | 0.204 |
| FFSPFFFFLFRL | Saccharomyces cerevisiae | 0.351 |
| AVVCSRLVLFCL | Saccharomyces cerevisiae | 0.446 |
| LYIQWVSRWSVQ | Saccharomyces cerevisiae | 0.415 |
| CCSRFLMLRILV | Saccharomyces cerevisiae | 0.1 |
| DYSVIPSLALLP | Saccharomyces cerevisiae | 0.673 |
| FFDLSLYSLCLC | Saccharomyces cerevisiae | 0.271 |
| SFQLVFLCVLIW | Saccharomyces cerevisiae | 0.154 |
| FFRPWRLVGCLV | Saccharomyces cerevisiae | 0.215 |
| GGSWVRCLRTMG | Saccharomyces cerevisiae | 0.158 |
| IFFVLVFFPGFF | Saccharomyces cerevisiae | 0.374 |
| PPLPPPPASVPP | Saccharomyces cerevisiae | 0.682 |
| CLTGWFGIFSAP | Saccharomyces cerevisiae | 0.688 |
| FAFPTPPPLLFD | Saccharomyces cerevisiae | 0.676 |
| VVCLCEYRLHIF | Saccharomyces cerevisiae | 0.0733 |
| VFRLLLFFVFVF | Saccharomyces cerevisiae | 0.236 |
| PCPAPRPPSPSA | Saccharomyces cerevisiae | 0.682 |
| DSTLLYRPPSPA | Saccharomyces cerevisiae | 0.637 |
| VGVVLWVWGLGD | Saccharomyces cerevisiae | 0.426 |
| LLPYSLSLALRA | Saccharomyces cerevisiae | 0.28 |
| LLSFSQLGYFVL | Saccharomyces cerevisiae | 0.152 |
| CLFHQFITLLVN | Saccharomyces cerevisiae | 0.0593 |
| GCLFMQVSLFWR | Saccharomyces cerevisiae | 0.138 |
| FVLLSVCFFGCL | Saccharomyces cerevisiae | 0.327 |
| CFFMVGFVFYFV | Saccharomyces cerevisiae | 0.294 |
| CFLLVSLGILCW | Saccharomyces cerevisiae | 0.106 |
| LSLVYFAALFSF | Saccharomyces cerevisiae | 0.377 |
| RFCLPLRLPVTT | Saccharomyces cerevisiae | 0.458 |
| FGFWGVVSCCNA | Saccharomyces cerevisiae | 0.477 |
| RAPPPSSLLSPP | Saccharomyces cerevisiae | 0.671 |
| TLCCLVCSQGVV | Saccharomyces cerevisiae | 0.479 |
| GILVVAASICYV | Saccharomyces cerevisiae | 0.359 |
| VCSRWFFVFVVR | Saccharomyces cerevisiae | 0.291 |
| FLLPILSSSPVL | Saccharomyces cerevisiae | 0.667 |

* * *

# Test system: Saccharomyces cerevisiae
# Run Description: protein stability index of tFT-peptide fusion (C-terminal peptide) (PSI (0-1 scale)); higher = more stable (slower turnover)
# Assay Setup: genetic background: wild type; temperature: 30 C
Decision: protein stability index compared against 0.7; not below it gives Criterion met, below it gives Criterion not met.

| Sequence | Experimental System | Label Class |
| --- | --- | --- |
| PPPPPPLSRTST | Saccharomyces cerevisiae | Criterion met |
| SGRIASQACLIW | Saccharomyces cerevisiae | Criterion not met |
| GLLLVWAALGFV | Saccharomyces cerevisiae | Criterion not met |
| PPLGPRPPSNST | Saccharomyces cerevisiae | Criterion not met |
| PHNTPRPELLPP | Saccharomyces cerevisiae | Criterion not met |
| GVLGCRWWGSMG | Saccharomyces cerevisiae | Criterion not met |
| PHPTPSLPHSSP | Saccharomyces cerevisiae | Criterion met |
| IKKKKKKENKRR | Saccharomyces cerevisiae | Criterion met |
| QVFKHVKHIEFD | Saccharomyces cerevisiae | Criterion met |
| NCPIQEPVSAIY | Saccharomyces cerevisiae | Criterion not met |
| LPRAPPPPPLLL | Saccharomyces cerevisiae | Criterion met |
| RTALSSPRPALL | Saccharomyces cerevisiae | Criterion met |
| PPPPPLLLPPPA | Saccharomyces cerevisiae | Criterion not met |
| LLPYSLSLALRA | Saccharomyces cerevisiae | Criterion not met |
| TIIPRHTFLPAP | Saccharomyces cerevisiae | Criterion met |
| HPSLSDLIVLCR | Saccharomyces cerevisiae | Criterion not met |
| PAAPGLDLRHDP | Saccharomyces cerevisiae | Criterion not met |
| ELTPCGNNDHAI | Saccharomyces cerevisiae | Criterion not met |
| GDGRCAVPFWWG | Saccharomyces cerevisiae | Criterion met |
| KRKKKKEQTKKK | Saccharomyces cerevisiae | Criterion met |
| DLTPWLAPFRER | Saccharomyces cerevisiae | Criterion met |
| TPRLVFFLPLLP | Saccharomyces cerevisiae | Criterion not met |
| FGVVLVGAGWGG | Saccharomyces cerevisiae | Criterion not met |
| GCSACLVSSLAG | Saccharomyces cerevisiae | Criterion not met |
| PSFVIQRCPMIL | Saccharomyces cerevisiae | Criterion not met |
| FSSPLLLFHLPV | Saccharomyces cerevisiae | Criterion not met |
| FYGCRLLFLKAR | Saccharomyces cerevisiae | Criterion not met |
| RDRGWSRGRQVH | Saccharomyces cerevisiae | Criterion not met |
| EVCGSGCGCGLC | Saccharomyces cerevisiae | Criterion met |
| GTPWHLRPRCPF | Saccharomyces cerevisiae | Criterion met |
| TPPPPPPFPLPP | Saccharomyces cerevisiae | Criterion not met |
| SVVVGTVFCRSW | Saccharomyces cerevisiae | Criterion not met |
| NMPIGVRLLLGR | Saccharomyces cerevisiae | Criterion not met |
| GCGKRVVVVSEL | Saccharomyces cerevisiae | Criterion not met |
| SKRSYEEGNIVY | Saccharomyces cerevisiae | Criterion not met |
| GYVLVLGVKGGL | Saccharomyces cerevisiae | Criterion not met |
| DGGRPFQKLYVA | Saccharomyces cerevisiae | Criterion not met |
| GYRGRDETNATN | Saccharomyces cerevisiae | Criterion not met |
| ATSRGFLQNLMA | Saccharomyces cerevisiae | Criterion not met |
| GGWCGSGGVVRG | Saccharomyces cerevisiae | Criterion not met |
| GVIGFNSLYGIA | Saccharomyces cerevisiae | Criterion not met |
| WLCLAVLVRFPC | Saccharomyces cerevisiae | Criterion not met |
| AVTWSRPRSARM | Saccharomyces cerevisiae | Criterion met |
| VWSSCAGDVLFD | Saccharomyces cerevisiae | Criterion met |
| SPLPPHPPLPLL | Saccharomyces cerevisiae | Criterion not met |
| GCRRGFRKGQDC | Saccharomyces cerevisiae | Criterion not met |
| NGGCCLVFRIEP | Saccharomyces cerevisiae | Criterion not met |
| TLPPPPLSTPTL | Saccharomyces cerevisiae | Criterion not met |
| PSAWRCFSTGKV | Saccharomyces cerevisiae | Criterion met |
| AVGGGTPGGVSG | Saccharomyces cerevisiae | Criterion not met |
| IRRTSENEEETW | Saccharomyces cerevisiae | Criterion not met |
| RSYAYIIVATVA | Saccharomyces cerevisiae | Criterion not met |
| DSMLTYIRSTKD | Saccharomyces cerevisiae | Criterion not met |
| LFAAPARTSAPC | Saccharomyces cerevisiae | Criterion met |
| LTCYFSASNVLW | Saccharomyces cerevisiae | Criterion not met |
